Assay: AUC(0 to last) in Sprague-Dawley rat at 2 mg/kg, iv measured at 5 to 600 min by LC-MS/MS analysis
Format: ADME, organism-based
Parameters: dose 2 mg/kg, time upper 600 min, time lower 5 min, route iv
Settings: in vivo
value-kind: AUC(0-t) (ng·h/mL)
Please give a number only; it is taken to be in ng·h/mL.

Query (compound): `CCC(=O)N1CCc2nc(Nc3ccc(C#N)cc3)nc(Oc3c(C)cc(C#N)cc3C)c2C1` ; field requested: AUC(0-t)
1730

###

Experiment: in vitro
Details: human, MT4 cells
Description: Selectivity index, ratio of CC50 for cytotoxicity against human MT4 cells to EC50 for antiviral activity against wildtype HIV-1 IIIB infected in human MT4 cells
value-kind: selectivity ratio
Field format: numeric only.

Query (compound): `Cc1cc(C#N)cc(C)c1Oc1nc(Nc2ccc(C#N)cc2)nc2c1CN(C(=O)c1ccc(F)cc1)CC2` ; field requested: selectivity ratio
736

Query (compound): `Cc1cc(C#N)cc(C)c1Oc1nc(Nc2ccc(C#N)cc2)nc2c1CN(S(=O)(=O)N(C)C)CC2` ; field requested: selectivity ratio
7910

Query (compound): `Cc1cc(C#N)cc(C)c1Oc1nc(Nc2ccc(C#N)cc2)nc2c1CNCC2` ; field requested: selectivity ratio
10400

Query (compound): `Cc1cc(C#N)cc(C)c1Oc1nc(Nc2ccc(C#N)cc2)nc2c1CN(C(=O)c1cccc(F)c1)CC2` ; field requested: selectivity ratio
551

Query (compound): `COc1cccc(C(=O)N2CCc3nc(Nc4ccc(C#N)cc4)nc(Oc4c(C)cc(C#N)cc4C)c3C2)c1` ; field requested: selectivity ratio
653

###

Experiment: Metabolic stability in human liver microsomes assessed as intrinsic clearance incubated for 60 mins in the presence of NADPH by LC-MS/MS analysis
Details: liver microsomes
Consider the following compounds; for each one, report its microsomal CLint at 1 h.
Give me the value, and tack the unit on after it.

Query (compound): `CCC(=O)N1CCc2nc(Nc3ccc(C#N)cc3)nc(Oc3c(C)cc(C#N)cc3C)c2C1` ; field requested: microsomal CLint at 1 h
138 µL/min/mg

Query (compound): `Cc1cc(C#N)cc(C)c1Oc1nc(Nc2ccc(C#N)cc2)nc(N)c1Br` ; field requested: microsomal CLint at 1 h
21.2 µL/min/mg

###

value-kind: pIC50
As a rule, pIC50 stands for the negative log10 of the concentration, concentration in M.

So what pIC50 did `Cc1cc(C#N)cc(C)c1Oc1nc(Nc2ccc(C#N)cc2)nc2c1CN(C(=O)c1ccc(F)cc1)CC2` get with Human immunodeficiency virus type 1 reverse transcriptase (Human immunodeficiency virus 1)?
6.81

So what pIC50 did `Cc1cc(C#N)cc(C)c1Oc1nc(Nc2ccc(C#N)cc2)nc2c1CN(C(=O)c1cccc(C#N)c1)CC2` get with Human immunodeficiency virus type 1 reverse transcriptase (Human immunodeficiency virus 1)?
6.79

So what pIC50 did `Cc1cc(C#N)cc(C)c1Oc1nc(Nc2ccc(C#N)cc2)nc2c1CN(C(=O)c1cccc(F)c1)CC2` get with Human immunodeficiency virus type 1 reverse transcriptase (Human immunodeficiency virus 1)?
6.68

So what pIC50 did `Cc1cc(C#N)cc(C)c1Oc1nc(Nc2ccc(C#N)cc2)nc2c1CN(C(=O)c1ccc([N+](=O)[O-])cc1)CC2` get with Human immunodeficiency virus type 1 reverse transcriptase (Human immunodeficiency virus 1)?
6.84

###

Assay: Half-life in Sprague-Dawley rat at 2 mg/kg, iv measured at 5 to 600 min by LC-MS/MS analysis
Format: ADME, organism-based
Details: in vivo, time 5-600 min
value-kind: half-life
Give me the value, and tack the unit on after it.

Query (molecule): `CCC(=O)N1CCc2nc(Nc3ccc(C#N)cc3)nc(Oc3c(C)cc(C#N)cc3C)c2C1` ; field requested: half-life
56.5 min

###

Consider the following compounds; for each one, report its EC50.
System: Human immunodeficiency virus 1
Experiment: Antiviral activity against NNRTI-resistant HIV-1 harboring E138K mutant infected in human MT4 cells assessed as protection against virus-induced cytopathic effect incubated for 5 days by MTT assay
Assay type: functional, organism-based
Conditions: Human immunodeficiency virus 1, MT4, 120 h
Please give a number only; it is taken to be in nM.

So what EC50 did `Cc1cc(C#N)cc(C)c1Oc1nc(Nc2ccc(C#N)cc2)nc2c1CN(Cc1ccccc1)CC2` get with Human immunodeficiency virus 1?
103

So what EC50 did `Cc1cc(C#N)cc(C)c1Oc1nc(Nc2ccc(C#N)cc2)nc2c1CN(C(=O)c1ccc(C(F)(F)F)cc1)CC2` get with Human immunodeficiency virus 1?
132

So what EC50 did `Cc1cc(C#N)cc(C)c1Oc1nc(Nc2ccc(C#N)cc2)nc2c1CN(C(=O)c1ccc(F)cc1)CC2` get with Human immunodeficiency virus 1?
24.1

So what EC50 did `Cc1cc(C#N)cc(C)c1Oc1nc(Nc2ccc(C#N)cc2)nc2c1CN(C(=O)c1cccc(C#N)c1)CC2` get with Human immunodeficiency virus 1?
40

So what EC50 did `Cc1cc(C#N)cc(C)c1Oc1nc(Nc2ccc(C#N)cc2)nc2c1CN(S(=O)(=O)N(C)C)CC2` get with Human immunodeficiency virus 1?
30.5

So what EC50 did `Cc1cc(C#N)cc(C)c1Oc1nc(Nc2ccc(C#N)cc2)nc2c1CN(Cc1ccc(C(N)=O)cc1)CC2` get with Human immunodeficiency virus 1?
13.4

So what EC50 did `Cc1cc(C#N)cc(C)c1Oc1nc(Nc2ccc(C#N)cc2)nc2c1CN(C(=O)c1ccc([N+](=O)[O-])cc1)CC2` get with Human immunodeficiency virus 1?
32.9

So what EC50 did `CCC(=O)N1CCc2nc(Nc3ccc(C#N)cc3)nc(Oc3c(C)cc(C#N)cc3C)c2C1` get with Human immunodeficiency virus 1?
11

So what EC50 did `Cc1cc(C#N)cc(C)c1Oc1nc(Nc2ccc(C#N)cc2)nc2c1CN(C(=O)c1cccc(F)c1)CC2` get with Human immunodeficiency virus 1?
33

So what EC50 did `Cc1cc(C#N)cc(C)c1Oc1nc(Nc2ccc(C#N)cc2)nc2c1CN(Cc1ccc(S(N)(=O)=O)cc1)CC2` get with Human immunodeficiency virus 1?
39.7

So what EC50 did `Cc1ccc(C(=O)N2CCc3nc(Nc4ccc(C#N)cc4)nc(Oc4c(C)cc(C#N)cc4C)c3C2)cc1` get with Human immunodeficiency virus 1?
23.5

So what EC50 did `Cc1cc(C#N)cc(C)c1Oc1nc(Nc2ccc(C#N)cc2)nc2c1CN(C(=O)c1cccc([N+](=O)[O-])c1)CC2` get with Human immunodeficiency virus 1?
43

So what EC50 did Cc1ccnc2c1NC(=O)c1cccnc1N2C1CC1 [NEVIRAPINE] get with Human immunodeficiency virus 1?
205

So what EC50 did `Cc1cc(C#N)cc(C)c1Oc1nc(Nc2ccc(C#N)cc2)nc2c1CN(Cc1ccc(S(C)(=O)=O)cc1)CC2` get with Human immunodeficiency virus 1?
43.3

So what EC50 did `Cc1cc(C#N)cc(C)c1Oc1nc(Nc2ccc(C#N)cc2)nc2c1CNCC2` get with Human immunodeficiency virus 1?
5.61

###

Tested on: Human immunodeficiency virus 1
Assay: Antiviral activity against NNRTI-resistant HIV-1 harboring E138K mutant infected in human MT4 cells assessed as protection against virus-induced cytopathic effect incubated for 5 days by MTT assay
Format: functional, organism-based
Details: Human immunodeficiency virus 1, MT4, 120 h
Consider the following compounds; for each one, report its EC50.
Please give a number only; it is taken to be in nM.

Query (compound): `Cc1cc(C#N)cc(C)c1Oc1nc(Nc2ccc(C#N)cc2)nc2c1CN(C(=O)c1cccc(C(F)(F)F)c1)CC2` ; field requested: EC50
152

Query (compound): `Cc1cc(C#N)cc(C)c1Oc1nc(Nc2ccc(C#N)cc2)nc2c1CN(Cc1ccc(B(O)O)cc1)CC2` ; field requested: EC50
55.7

Query (compound): `COc1cccc(C(=O)N2CCc3nc(Nc4ccc(C#N)cc4)nc(Oc4c(C)cc(C#N)cc4C)c3C2)c1` ; field requested: EC50
33.3

Query (compound): `COC(=O)c1ccc(C(=O)N2CCc3nc(Nc4ccc(C#N)cc4)nc(Oc4c(C)cc(C#N)cc4C)c3C2)cc1` ; field requested: EC50
274

Query (compound): `C=CC(=O)N1CCc2nc(Nc3ccc(C#N)cc3)nc(Oc3c(C)cc(C#N)cc3C)c2C1` ; field requested: EC50
45.3

Query (compound): `O=C1Nc2ccc(Cl)cc2[C@@](C#CC2CC2)(C(F)(F)F)O1` ; field requested: EC50
6.82

Query (compound): `COc1ccc(C(=O)N2CCc3nc(Nc4ccc(C#N)cc4)nc(Oc4c(C)cc(C#N)cc4C)c3C2)cc1` ; field requested: EC50
47.5

Query (compound): `Cc1cc(C#N)cc(C)c1Oc1nc(Nc2ccc(C#N)cc2)nc2c1CN(C(=O)c1ccc(C#N)cc1)CC2` ; field requested: EC50
46.8

###

Biological target: Human immunodeficiency virus type 1 reverse transcriptase (Human immunodeficiency virus 1, UniProt Q72547)
Assay: Inhibition of HIV-1 reverse transcriptase assessed as assessed as reduction of biotin-dUTP incorporation into […] incubated for 1 hrs by ELISA analysis
value-kind: pIC50
As a rule, pIC50 stands for the negative log10 of the concentration, concentration in M.

Query (compound): `Cc1cc(C#N)cc(C)c1Oc1nc(Nc2ccc(C#N)cc2)nc2c1CN(Cc1ccc(B(O)O)cc1)CC2` ; field requested: pIC50
6.74

Query (compound): `Cc1cc(C#N)cc(C)c1Oc1nc(Nc2ccc(C#N)cc2)nc2c1CN(Cc1ccc(C(N)=O)cc1)CC2` ; field requested: pIC50
6.91

Query (compound): `C=CC(=O)N1CCc2nc(Nc3ccc(C#N)cc3)nc(Oc3c(C)cc(C#N)cc3C)c2C1` ; field requested: pIC50
7.15

Query (compound): `Cc1cc(C#N)cc(C)c1Oc1nc(Nc2ccc(C#N)cc2)nc2c1CN(Cc1ccccc1)CC2` ; field requested: pIC50
6.65

Query (compound): `Cc1cc(C#N)cc(C)c1Oc1nc(Nc2ccc(C#N)cc2)nc2c1CN(S(=O)(=O)N(C)C)CC2` ; field requested: pIC50
7.08

meta.source: ChEMBL document CHEMBL5331107
